Data origin, for the record: patent US6596772B1

The entries below are paired with their reported pIC50.
Target: PTP MU (Homo sapiens)
Construct: made in house; host or cells: E. coli BL-21 (pGEX 6P-1)
Sequence (P28827 831-1186 limits assumed): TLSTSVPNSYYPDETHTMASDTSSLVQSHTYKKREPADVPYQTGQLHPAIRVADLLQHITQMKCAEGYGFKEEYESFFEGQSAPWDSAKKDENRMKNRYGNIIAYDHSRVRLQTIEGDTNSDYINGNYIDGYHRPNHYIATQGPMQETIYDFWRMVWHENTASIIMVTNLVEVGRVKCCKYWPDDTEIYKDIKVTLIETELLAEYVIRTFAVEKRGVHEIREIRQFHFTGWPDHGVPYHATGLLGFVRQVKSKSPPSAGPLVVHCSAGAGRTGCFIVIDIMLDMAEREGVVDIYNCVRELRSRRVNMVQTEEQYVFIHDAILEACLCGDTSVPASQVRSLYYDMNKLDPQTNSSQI
Test: PTP IC50 assay, pNPP or FDP as substrate
Type: biochemical
Conditions: pNPP or FDP as substrate, 25° C.; read-out: PTP IC50 Mu
pIC50: −log10 of the molar value.
RESULT_TYPE: pIC50

| STRUCTURE_SMILES | SYSTEM_UNDER_TEST | RESULT_TYPE | RESULT_MODIFIER | VALUE_REPORTED |
| --- | --- | --- | --- | --- |
| O=[N+]([O-])c1cc(S(=O)(=O)C(F)(F)F)ccc1SSc1ccc(S(=O)(=O)C(F)(F)F)cc1[N+](=O)[O-] | PTP MU (Homo sapiens) | pIC50 | < | 4.00 |
| CCOC(=O)COc1ccc(S(=O)(=O)c2ccc(Oc3ccc(S(=O)(=O)C(F)(F)F)cc3[N+](=O)[O-])cc2)cc1 | PTP MU (Homo sapiens) | pIC50 | < | 4.00 |
| CCOC(=O)COc1ccc(S(=O)(=O)c2ccc(Oc3ccc(S(=O)(=O)C(F)(F)F)cc3)cc2)cc1 | PTP MU (Homo sapiens) | pIC50 | = | 4.16 |
| CCOC(=O)c1cc(Oc2ccc(S(=O)(=O)C(F)(F)F)cc2[N+](=O)[O-])c(C(=O)OCC)cc1O | PTP MU (Homo sapiens) | pIC50 | = | 4.19 |
| O=C(Cc1ccc(CC(=O)Nc2cccc(S(=O)(=O)C(F)(F)F)c2)cc1)Nc1cccc(S(=O)(=O)C(F)(F)F)c1 | PTP MU (Homo sapiens) | pIC50 | = | 4.76 |
| O=S(=O)(c1ccc(CCc2ccc(S(=O)(=O)C(F)(F)F)cc2)cc1)C(F)(F)F | PTP MU (Homo sapiens) | pIC50 | < | 4.00 |
| O=S(=O)(c1ccc(COCc2ccc(S(=O)(=O)C(F)(F)F)cc2)cc1)C(F)(F)F | PTP MU (Homo sapiens) | pIC50 | < | 4.00 |
